assay-summary: Effect on growth of Lactobacillus crispatus JV-V01 HM 103 measured after 48 hrs in 5% CO2 by CLSI method
condition-label: lactobacillus crispatus jv-v01, 48 h
measure-name: MIC

The reported value for "Cc1nc2c([N+](=O)[O-])csc2c(=O)[nH]1" in terms of MIC is > 1212 µM

"Cc1ncc([N+](=O)[O-])n1CCO" has a reported MIC of > 1496 µM

----------
For each entry below, report its MIC value.
assay-summary: Effect on growth of Lactobacillus crispatus JV-V01 HM 103 measured after 48 hrs in 5% CO2 by CLSI method
condition-label: lactobacillus crispatus jv-v01, 48 h

For this compound ( "Cc1nc(N2CCOCC2)c2scc([N+](=O)[O-])c2n1" ), measured MIC is > 913 µM

Quick note, MIC for "O=c1[nH]cnc2ccc([N+](=O)[O-])cc12" landed at > 700 µM

Summary for this compound, "Cc1nc2c([N+](=O)[O-])csc2c(=O)n1Cc1ccc([N+](=O)[O-])cc1" : MIC is > 739 µM

Consider "Cc1nc2c([N+](=O)[O-])csc2c(=O)n1Cc1ccccc1" . Its measured MIC is > 425 µM

----------
assay-summary: Aqueous solubility of compound in PBS buffer at 1 to 100 ug/ml at pH 7.3 to 7.5 measured after 24 hrs by HPLC analysis
Type: physicochemical
Kindly supply the reported solubility at 24 h values for the records listed here.
Value expressed in µg/mL; do not type the unit.

solubility at 24 h for "O=c1[nH]c(/C=C/c2ccc(F)cc2)nc2c([N+](=O)[O-])csc12" is 14.8

Note to self: solubility at 24 h recorded for "Cc1nc2c([N+](=O)[O-])csc2c(=O)n1Cc1ccc([N+](=O)[O-])cc1" was 12.7

Sure, the documented solubility at 24 h for "Cc1nc2c([N+](=O)[O-])csc2c(=O)n1CCCc1ccccc1" is 10.8

solubility at 24 h reported for this molecule "Cc1nc(N2CCOCC2)c2scc([N+](=O)[O-])c2n1" : 18.7

----------
Test system: Lacticaseibacillus paracasei
assay-summary: Effect on growth of Lactobacillus casei ATCC 334 measured after 48 hrs in 5% CO2 by CLSI method
Answer each item with its documented MIC.

Notebook: "O=c1[nH]c(/C=C/c2ccc(F)cc2)nc2c([N+](=O)[O-])csc12" , MIC read as > 807 µM

The reported value for "O=c1[nH]c(/C=C/c2ccccc2F)nc2c([N+](=O)[O-])csc12" in terms of MIC is > 807 µM

Briefly, MIC measured for "Cc1nc2c([N+](=O)[O-])csc2c(=O)[nH]1" : > 1212 µM

According to the records, this compound "Cc1nc2c([N+](=O)[O-])csc2c(=O)n1Cc1ccccc1" displays MIC of > 425 µM

The value of MIC measured for the compound "CCc1c(Cl)c(O)c(Cl)c(O)c1C(=O)O[C@H]1[C@H](O)[C@H](OC)[C@H](OC/C2=C\C=C\C[C@H](O)/C(C)=C/[C@H](CC)[C@@H](O[C@@H]3OC(C)(C)[C@@H](OC(=O)C(C)C)[C@H](O)[C@@H]3O)/C(C)=C/C(C)=C/C[C@@H]([C@@H](C)O)OC2=O)O[C@@H]1C" turned out to be > 242 µM

Recorded result, "Cc1nc2c([N+](=O)[O-])csc2c(=O)n1CCCc1ccccc1" , MIC: > 777 µM

Lab note: measured MIC of "Cc1nc2c([N+](=O)[O-])scc2c(=O)[nH]1" was > 700 µM

Recorded result, "O=c1[nH]c(/C=C/c2ccc(Cl)cc2)nc2c([N+](=O)[O-])csc12" , MIC: > 767 µM

Memo: "O=c1[nH]cnc2ccc([N+](=O)[O-])cc12" , reported MIC: > 700 µM

For reference, reported MIC for "Cc1nc2c([N+](=O)[O-])cccc2c(=O)[nH]1" stands at > 700 µM

Form: compound = "Cc1ncc([N+](=O)[O-])n1CCO" ; MIC = 47 µM

Input "Cc1nc2c([N+](=O)[O-])coc2c(=O)[nH]1" . Output MIC: > 700 µM

get_value(item= "Cc1nc(N2CCOCC2)c2scc([N+](=O)[O-])c2n1" , readout=MIC) returns > 913 µM

GET /value?item= "Cc1nc2c([N+](=O)[O-])csc2c(=O)n1Cc1ccc([N+](=O)[O-])cc1" &field=MIC returns > 739 µM

----------
Field: MIC. Provide a value for each of the compounds that follow.
Tested on: Enterobacter cloacae
assay-summary: Effect on growth of Enterobacter cloacae ATCC BAA 1143 assessed as bacterial growth inhibition measured after 16 to 18 hrs grown in tryptic soy medium by CLSI method
Format: organism-based
condition-label: in vivo

Value of measured MIC for the entry "Cc1nc2c([N+](=O)[O-])csc2c(=O)n1Cc1ccc([N+](=O)[O-])cc1" : > 739 µM

According to the records, this compound "Cc1nc2c([N+](=O)[O-])cccc2c(=O)[nH]1" displays MIC of > 700 µM

Field MIC (entry "Cc1nc2c([N+](=O)[O-])scc2c(=O)[nH]1" ) reads > 700 µM

Form: compound = "Cc1nc2c([N+](=O)[O-])csc2c(=O)n1CCCc1ccccc1" ; MIC = > 777 µM

Recorded MIC (compound "O=c1[nH]c(/C=C/c2ccccc2F)nc2c([N+](=O)[O-])csc12" ): > 807 µM

MIC reported for this compound "O=c1[nH]cnc2ccc([N+](=O)[O-])cc12" : > 700 µM

For reference, reported MIC for "O=c1[nH]c(/C=C/c2ccc(F)cc2)nc2c([N+](=O)[O-])csc12" stands at > 807 µM

Form field MIC, entry "Cc1nc2c([N+](=O)[O-])coc2c(=O)[nH]1" : > 700 µM

Lab book: MIC of "Cc1nc2c([N+](=O)[O-])csc2c(=O)[nH]1" noted as > 1212 µM

Just so you know, measured MIC for "Cc1nc2c([N+](=O)[O-])csc2c(=O)n1Cc1ccccc1" came out at > 850 µM

"O=c1[nH]c(/C=C/c2ccc(Cl)cc2)nc2c([N+](=O)[O-])csc12" yielded MIC of > 767 µM

The compound "Cc1nc(N2CCOCC2)c2scc([N+](=O)[O-])c2n1" showed MIC equal to > 913 µM

----------
assay-summary: Effect on growth of Lactobacillus gasseri EX336960VC03 HM 400 measured after 48 hrs in 5% CO2 by CLSI method
condition-label: lactobacillus gasseri ex336960vc03, 48 h
measure-name: MIC

Recorded MIC (molecule "Cc1nc2c([N+](=O)[O-])coc2c(=O)[nH]1" ): > 700 µM

Given item "Cc1nc2c([N+](=O)[O-])csc2c(=O)n1Cc1ccccc1" , the value recorded as its MIC is > 425 µM

Reported MIC ( "Cc1ncc([N+](=O)[O-])n1CCO" ) = > 1496 µM

Lab note: "O=c1[nH]c(/C=C/c2ccccc2F)nc2c([N+](=O)[O-])csc12" gave MIC of > 807 µM

What the record says about "Cc1nc2c([N+](=O)[O-])csc2c(=O)n1Cc1ccc([N+](=O)[O-])cc1" : MIC is > 739 µM

Summary for this molecule, "Cc1nc2c([N+](=O)[O-])csc2c(=O)n1CCCc1ccccc1" : MIC is > 777 µM

// MIC lookup, molecule = "O=c1[nH]cnc2ccc([N+](=O)[O-])cc12" , result: > 700 µM

----------
System: HRT-18 cell line
assay-summary: Cytotoxicity against human HRT18 cells at > 256 uM measured after 2 hrs by MTS assay
Format: cell-based
condition-label: hrt-18, 2 h
measure-name: Activity

>  <smiles-string>
O=c1[nH]c(/C=C/c2ccc(Cl)cc2)nc2c([N+](=O)[O-])csc12

>  <result>
Non-Toxic

$$$$
>  <smiles-string>
Cc1nc2c([N+](=O)[O-])csc2c(=O)[nH]1

>  <result>
Non-Toxic

$$$$
>  <smiles-string>
O=c1[nH]c(/C=C/c2ccccc2F)nc2c([N+](=O)[O-])csc12

>  <result>
Non-Toxic

$$$$

----------
Please go through the items and note down their MIC.
assay-summary: Effect on growth of Lactobacillus gasseri EX336960VC03 HM 400 measured after 48 hrs in 5% CO2 by CLSI method
condition-label: lactobacillus gasseri ex336960vc03, 48 h

Record summary for "Cc1nc2c([N+](=O)[O-])csc2c(=O)[nH]1" : reported MIC = > 1212 µM

Short answer for "O=c1[nH]c(/C=C/c2ccc(Cl)cc2)nc2c([N+](=O)[O-])csc12" : MIC was > 767 µM

Sample "Cc1nc2c([N+](=O)[O-])cccc2c(=O)[nH]1" ; MIC observed: > 700 µM

The compound identified as "O=c1[nH]c(/C=C/c2ccc(F)cc2)nc2c([N+](=O)[O-])csc12" registered its MIC at > 807 µM

Reported MIC for "Cc1nc(N2CCOCC2)c2scc([N+](=O)[O-])c2n1" was > 913 µM

compound "Cc1nc2c([N+](=O)[O-])scc2c(=O)[nH]1" , MIC observed: > 700 µM
